# STUDY TARGET: Ferritin light chain (Equus caballus) (UniProt P02791)
# Sequence (P02791 2-175 limits assumed): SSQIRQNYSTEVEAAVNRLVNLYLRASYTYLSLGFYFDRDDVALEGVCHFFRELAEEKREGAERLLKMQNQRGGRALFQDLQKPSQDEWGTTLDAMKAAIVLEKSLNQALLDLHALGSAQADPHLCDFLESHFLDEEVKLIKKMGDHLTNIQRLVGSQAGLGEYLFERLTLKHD
# ASSAY PROCEDURE: qHTS Assay for Identification of Novel General Anesthetics; further: nearly all actives have a fitted effect of over 20% in size
# CONDITION CONTEXT: apoferritin/1-aminoanthracene competitive binding, fluorescence; series mostly up to 77.5 µM
Screen size: about 350,000 compounds; about 260 (0.074%) were called active. Not shown: some 8% with an inconclusive outcome. The call rests on the fitted dose curve; in most records, active means well fitted inhibition curve with a large enough effect; inconclusive means small, poorly fitted or top-dose-only effect; inactive means no such curve, though single readings can be large or run the other way. Shown is part of a subset that was picked to be rich in actives.
Labels: active, inactive

SMILES REPRESENTATION | GROUP
C[C@H]1C/C=C/[C@@H]2[C@@H]3O[C@]3(C)[C@@H](C)[C@H]3[C@H](Cc4ccccc4)NC(=O)[C@]32OC(=O)O/C=C/[C@](C)(O)C1=O | inactive
CCc1ccccc1NC(=O)c1sc2nc3c(cc2c1N)CN(Cc1ccccc1)CC3 | inactive
CCOCCCNC(=O)c1c(NC(=O)c2nc(SC)ncc2Cl)sc2c1CCCC2 | inactive
N[C@@H](Cc1c[nH]c2ccccc12)c1nnc(SCc2c(F)cccc2Cl)o1 | active

Data provenance is PubChem BioAssay AID485281.
